- tested target: GAL4 DBD (1-147)-CfEcR(DEF)/VP16AD-βRXREF-LmUSPEF (Choristoneura fumiferana)
- procedure details: cell-based
measured attribute: pEC50
In plain terms, pEC50 is the concentration in mol/L turned into minus its base-10 logarithm.

Request: I am curious: what pEC50 value has been reported for CCC(N(NC(=O)c1cccc(C)c1C)C(=O)c1cc(C)cc(C)c1)C(C)(C)C (centres unmarked) ?
Result: 5.52

Request: I am curious: what pEC50 value has been reported for `COc1cccc(C(=O)NN(C(=O)c2cc(Cl)c(F)c(Cl)c2)C(C)(C)C)c1C` ?
Result: 6.51

Request: I am curious: what pEC50 value has been reported for CCCC(N(NC(=O)c1ccc2c(c1C)OCCO2)C(=O)c1cc(OC)c(C)c(OC)c1)C(C)(C)C (centres unmarked) ?
Result: 8.00

Request: I am curious: what pEC50 value has been reported for `COc1cc(C(=O)N(NC(=O)c2ccc3c(c2C)OCCO3)C(C)(C)C#N)cc(OC)c1C` ?
Result: 6.67

---

- tested target: Bombyx mori EcR (VP16 fusion, CVBE switch construct) (Bombyx mori)
- Sequence (P49881 86-606): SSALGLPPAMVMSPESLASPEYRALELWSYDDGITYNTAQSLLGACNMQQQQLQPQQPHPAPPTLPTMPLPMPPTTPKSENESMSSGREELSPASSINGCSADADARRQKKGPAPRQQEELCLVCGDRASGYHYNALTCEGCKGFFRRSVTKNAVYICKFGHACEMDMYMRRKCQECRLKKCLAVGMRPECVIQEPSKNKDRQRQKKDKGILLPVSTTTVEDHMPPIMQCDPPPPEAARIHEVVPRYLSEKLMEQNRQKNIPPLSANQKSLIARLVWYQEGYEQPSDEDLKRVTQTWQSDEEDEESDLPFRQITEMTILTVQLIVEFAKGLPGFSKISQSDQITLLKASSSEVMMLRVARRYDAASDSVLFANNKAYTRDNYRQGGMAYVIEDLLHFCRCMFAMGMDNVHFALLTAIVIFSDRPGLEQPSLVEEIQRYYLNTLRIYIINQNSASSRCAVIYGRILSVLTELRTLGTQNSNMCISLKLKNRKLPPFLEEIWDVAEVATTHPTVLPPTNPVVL
- Sequence (P19793 1-462 partner): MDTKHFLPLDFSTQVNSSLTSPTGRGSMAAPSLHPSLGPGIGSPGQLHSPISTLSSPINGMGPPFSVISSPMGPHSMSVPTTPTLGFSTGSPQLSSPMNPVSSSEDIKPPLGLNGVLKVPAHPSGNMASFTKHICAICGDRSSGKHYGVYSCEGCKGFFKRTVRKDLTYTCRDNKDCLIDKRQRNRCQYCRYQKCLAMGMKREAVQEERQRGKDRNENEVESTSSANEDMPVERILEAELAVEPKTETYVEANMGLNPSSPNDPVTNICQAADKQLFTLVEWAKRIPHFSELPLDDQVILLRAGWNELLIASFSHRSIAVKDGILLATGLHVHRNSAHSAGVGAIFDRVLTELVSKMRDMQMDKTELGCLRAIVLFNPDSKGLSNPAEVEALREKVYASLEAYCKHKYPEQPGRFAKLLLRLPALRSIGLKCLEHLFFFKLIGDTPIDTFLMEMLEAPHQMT
- procedure details: Z3 Assay (HEK-293 cells with CVBE and 6XEcRE LacZ, β-galactosidase reporter)
- assay setup: HEK293, read-out: Fold Induction, Z3 Assay, 33 uM
measured attribute: fold induction at 33 µM

Request: I am curious: what fold induction at 33 µM value has been reported for `CC(C)(C)N(NC(=O)c1ccc(Cl)cc1)C(=O)c1ccccc1` ?
Result: 840

Request: I am curious: what fold induction at 33 µM value has been reported for CCCC(N(NC(=O)c1cccc(OC)c1CC)C(=O)c1cc(OC)c(C)c(OC)c1)C(C)(C)C (centres unmarked) ?
Result: 319

Request: I am curious: what fold induction at 33 µM value has been reported for `COc1cc(C(=O)N(NC(=O)c2ccc3c(c2C)OCCO3)C(C)(C)C)cc(OC)c1O` ?
Result: 472

Request: I am curious: what fold induction at 33 µM value has been reported for `CCc1c(OC)cccc1C(=O)NN(C(=O)c1cnccn1)C(C)(C)C` ?
Result: 21

Request: I am curious: what fold induction at 33 µM value has been reported for `COc1cccc(C(=O)NN(C(=O)c2cc(C)cc(C)c2)C(C)(C)C)c1CS(C)(=O)=O` ?
Result: 3

Request: I am curious: what fold induction at 33 µM value has been reported for CCC(N(NC(=O)c1cccc(C)c1C)C(=O)c1cc(C)cc(C)c1)C(C)(C)C (centres unmarked) ?
Result: 591

Request: I am curious: what fold induction at 33 µM value has been reported for `CCc1c(C(=O)NN(C(=O)c2cc(C)cc(Cl)c2)C(C)(C)C)ccc2c1OCCO2` ?
Result: 384

Request: I am curious: what fold induction at 33 µM value has been reported for `Cc1c(C(=O)NN(C(=O)c2cc(F)c(F)c(F)c2)C(C)(C)C)ccc2c1CCCO2` ?
Result: 785

Request: I am curious: what fold induction at 33 µM value has been reported for `CCOC(=O)C(C)(C)N(NC(=O)c1cccc(OC)c1CC)C(=O)c1cc(C)cc(C)c1` ?
Result: 489

Request: I am curious: what fold induction at 33 µM value has been reported for `CCc1c(OC)cccc1C(=O)NN(C(=O)c1cc(C)cc(/C=N/NC(N)=O)c1)C(C)(C)C` ?
Result: 1720

Request: I am curious: what fold induction at 33 µM value has been reported for `CCc1c(OC)cccc1C(=O)NN(C(=O)c1n[nH]c2ccccc12)C(C)(C)C` ?
Result: 17

Request: I am curious: what fold induction at 33 µM value has been reported for `CCc1c(OC)cccc1C(=O)NN(C(=O)c1cc(C)cc(C)c1)C(C)(C)C=NO` ?
Result: 1120

Request: I am curious: what fold induction at 33 µM value has been reported for `COc1cccc(C(=O)NN(C(=O)c2cc(Cl)c(F)c(Cl)c2)C(C)(C)C)c1C` ?
Result: 426

Request: I am curious: what fold induction at 33 µM value has been reported for `COc1cccc(C(=O)NN(C(=O)c2cc(C)cc(C)c2)C(C)(C)C)c1C` ?
Result: 1970

Request: I am curious: what fold induction at 33 µM value has been reported for `CCc1c(OC)cccc1C(=O)NN(C(=O)c1ccc2nc[nH]c2c1)C(C)(C)C` ?
Result: 271

Request: I am curious: what fold induction at 33 µM value has been reported for `COc1cccc(C(=O)NN(C(=O)c2cc(C)cc(C)c2)C(C)(C)C)c1CCl` ?
Result: 814

Request: I am curious: what fold induction at 33 µM value has been reported for `COc1cccc(C(=O)NN(C(=O)c2cc(C)cc(C)c2)C(C)(C)C)c1CN(C)C` ?
Result: 20

---

- tested target: GAL4 DBD-CfEcR(DEF)/VP16AD-MmRXRE (Choristoneura fumiferana)
- procedure details: 13B3 Assay (CHO stable cell line, luciferase reporter)
- assay setup: 33 uM ligand; RLU ligand treated / RLU DMSO treated cells; average of two wells
Can you tell me Fold Induction, 13B3 Assay, 33 uM for the items I'm about to list?
Reply with the value as a number alone.

Request: I am curious: what Fold Induction, 13B3 Assay, 33 uM value has been reported for `COc1cc(C(=O)N(NC(=O)c2cccc(OC)c2C)C(C)(C)C)ccc1C` ?
Result: 709

Request: I am curious: what Fold Induction, 13B3 Assay, 33 uM value has been reported for `COc1cccc(C(=O)NN(C(=O)c2cc(C)cc(Br)c2)C(C)(C)C)c1C` ?
Result: 718

Request: I am curious: what Fold Induction, 13B3 Assay, 33 uM value has been reported for `Cc1c(C(=O)NN(C(=O)c2cc(F)c(F)cc2F)C(C)(C)C)ccc2c1CCCO2` ?
Result: 709

Request: I am curious: what Fold Induction, 13B3 Assay, 33 uM value has been reported for `CCc1c(OC)cccc1C(=O)NN(C(=O)c1cccc(F)c1)C(C)(C)C` ?
Result: 1996

---

Can you tell me Papp, B-to-A Avg for the items I'm about to list?
- Test system: Caco-2 monolayers
- procedure details: Bi-directional permeability, CACO-2
- Assay type: in vitro ADME
- assay setup: Caco-2

Request: I am curious: what Papp, B-to-A Avg value has been reported for `CC(=O)c1ccc(C(=O)NN(C(=O)c2cc(C(=O)O)cc(C(=O)O)c2)C(C)(C)C)cc1` ?
Result: 0.33 10^−6 cm/s

Request: I am curious: what Papp, B-to-A Avg value has been reported for `CCc1c(C(=O)NN(C(=O)c2ccc(F)c(C(F)(F)F)c2)C(C)(C)C)ccc2c1OCCO2` ?
Result: 1.49 10^−6 cm/s

Request: I am curious: what Papp, B-to-A Avg value has been reported for CCc1c(OC)cccc1C(=O)NN(C(=O)c1ccccc1[S+](C)[O-])C(C)(C)C (stereo not shown) ?
Result: 30.9 10^−6 cm/s

Request: I am curious: what Papp, B-to-A Avg value has been reported for CC(O)c1ccc(C(=O)NN(C(=O)c2cc(CO)cc(CO)c2)C(C)(C)C)cc1 (stereo not shown) ?
Result: 0.93 10^−6 cm/s
